The origin of these recorded values is paper PMC8198714.

Target: human recombinant CB1 receptor (Homo sapiens)
Sequence (P21554 whole entry): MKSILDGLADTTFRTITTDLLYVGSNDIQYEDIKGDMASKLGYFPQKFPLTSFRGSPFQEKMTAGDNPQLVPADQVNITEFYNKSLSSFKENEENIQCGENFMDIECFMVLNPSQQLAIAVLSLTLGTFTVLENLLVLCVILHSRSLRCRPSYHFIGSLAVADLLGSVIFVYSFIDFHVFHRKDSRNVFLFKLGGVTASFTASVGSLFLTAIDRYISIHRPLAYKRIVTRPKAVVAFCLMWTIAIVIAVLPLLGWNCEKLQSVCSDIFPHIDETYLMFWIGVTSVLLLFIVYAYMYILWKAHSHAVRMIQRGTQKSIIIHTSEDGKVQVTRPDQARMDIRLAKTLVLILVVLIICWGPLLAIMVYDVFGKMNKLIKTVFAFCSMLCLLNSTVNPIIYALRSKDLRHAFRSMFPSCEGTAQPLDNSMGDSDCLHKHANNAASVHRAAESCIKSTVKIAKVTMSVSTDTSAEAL
Assay: Competition binding assay with [3H]-CP-55,940 at CB1
Settings: [3H]-CP55940 displacement, HEK-293 membranes; read-out: Ki on CB1 (m ± sd)
pKi: −log10 of the molar value.
readout.kind: pKi

Example compounds with recorded pKi:
INSERT INTO assay_data (structure_notation, recorded_result) VALUES
  ('CN(CCCOc1ccc2ccc(=O)oc2c1)Cc1cccc(OCC(=O)NC2CCCC2)c1', '< 5.00'),
  ('CCCCCCCNC(=O)COc1cccc(CN(C)CCCOc2ccc3ccc(=O)oc3c2)c1', '< 5.00');

Now turn to the next compound.
Exercise: Recorded pKi for "CN(CCCOc1ccc2ccc(=O)oc2c1)Cc1cccc(OCC(=O)NC2CCCCC2)c1" , please?
Solution: < 5.00
